System: NCI-H460 lung
protocol_description: NCI-60 one-dose screen, 48 h
experimental_parameters: 10 µM unless noted
Compounds without any hit were thinned out: in the full panel of roughly 83,000, 20% have a hit. The source made the active and inactive calls. The calls were made as follows: active = growth percent below 10; inactive = the rest.
Respond using exactly one of the listed classes: active, inactive

Just curious, what result did `NC(=O)C(=O)c1ccccc1NC=O` get here?
inactive

Just curious, what result did `O=C1C(=O)N(Cc2ccc(-c3ccccc3)cc2)c2ccc(OC(F)(F)F)cc21` get here?
inactive

Just curious, what result did `CSc1nc(N)c(NS(=O)(=O)c2ccc(C(C)=O)cc2)c(=O)[nH]1` get here?
inactive

Just curious, what result did COc1ccc(C2CC(c3ccc(Nc4nc(Nc5ccccc5)nc(Nc5ccccc5)n4)cc3)=NN2C(C)=O)cc1 (centres undefined) get here?
inactive

Just curious, what result did `COC1=CC(c2ccc[nH]2)=N/C1=C\c1[nH]c(C)c(C)c1CCC(=O)OCc1ccccc1` get here?
inactive

Just curious, what result did O=CN1N=C(c2cccc(Nc3ccnc4cc(Cl)ccc34)c2)CC1c1ccccc1 (centres undefined) get here?
active

Just curious, what result did `CN(C)CC(C)(C)C(=O)/C=C/c1ccccc1` get here?
active

Just curious, what result did `Cn1cc(-c2csc(-c3cn(C(=O)OC(C)(C)C)c4ccc(Br)cc34)n2)c2ccnc(Cl)c21` get here?
inactive

Just curious, what result did `COc1cc(OC)c(/C=C/C(=O)c2c(OC)cccc2OC)c(OC)c1` get here?
active

Just curious, what result did `C=CCn1c(SCC(=O)Nc2ccc(C(=O)/C=C/c3ccc(Cl)cc3)cc2)nnc1-c1ccc(Br)cc1` get here?
inactive

Just curious, what result did `CCN(CC)CCn1c2ccc(O)cc2c2sc3cc(O)ccc3c(=O)c21` get here?
active

Just curious, what result did `COc1ccc(-c2nn(-c3cccc(Cl)c3)cc2-c2cc(-c3ccc(Br)cc3)nc(N)n2)cc1` get here?
inactive

Just curious, what result did `CN(/C(N)=N/N=C/c1c2ccccc2cc2ccccc12)C1CCCCC1` get here?
inactive

Just curious, what result did `CC(=O)c1c(C)nc2ccccc2c1/C=C/c1ccc(F)cc1` get here?
inactive

Just curious, what result did `N#Cc1c(-c2ccc(Cl)cc2)c(C#N)c2c(C#N)c(N)nn2c1N` get here?
inactive

Just curious, what result did `CCOC(=O)c1ccc(NC(=O)c2nc(-c3cc(OC)c(OC)c(OC)c3)n(-c3ccc(Cl)cc3)n2)cc1` get here?
inactive

Just curious, what result did `Cc1cc(=O)oc2cc(OCc3nn4c(Nc5nc6ccccc6s5)c(-c5ccccc5)nc4s3)ccc12` get here?
inactive

Just curious, what result did `COc1ccc(/C=C/C(=O)c2ccc(Nc3ccnc4cc(Cl)ccc34)cc2)cc1` get here?
inactive

Just curious, what result did `COc1cc2c(cc1OCCCN1CCN(CCCOc3cc4c(cc3OC)C(=O)N3CCC[C@H]3C=N4)CC1)C=CC(C)(C)O2` get here?
active

###

System: T-47D breast
protocol_description: NCI-60 one-dose screen, 48 h (100 = growth as untreated, 0 = no growth, -100 = all killed)
experimental_parameters: 10 µM unless noted
Compounds without any hit were thinned out: in the full panel of roughly 83,000, 20% have a hit.
Could you please report measured growth for the items listed next?
Report as a plain number; the unit % is understood.

Tested on T-47D breast: CCc1ncnc2c1ccn2C(C)c1ccc(OC)c(F)c1 (stereo not given) . Observed growth: 36.1

Tested on T-47D breast: `COc1cc(NS(=O)(=O)c2ccc(-c3cnc(C4CC4)o3)cc2)ccc1F` . Observed growth: 33.6

Tested on T-47D breast: `c1ccc(-c2oc(-c3ccccc3)c(CN3CCCCC3)c2CN2CCCCC2)cc1` . Observed growth: 8.84

Tested on T-47D breast: `COc1ccc(-c2cc(-c3cc(OC)c(OC)c(OC)c3)c(C#N)c(=O)n2CCCCC(=O)NO)cc1` . Observed growth: 50.7

Tested on T-47D breast: CCN(CC)CC(O)COc1c(Br)c(Br)c(Br)c2c1OC(C)(C)C2 (stereo not given) . Observed growth: 69.5
